Let's look at some compounds and their measured melting point.

In the examples that follow, each entry is paired with its recorded melting point.
Problem: What value of measured melting point is listed for `N#Cc1c2n(c3ccccc13)CCNCC2` ?
Result: 161 to 164 °C

Problem: What value of measured melting point is listed for `COc1ccc2cc(C#N)c(=O)oc2c1C` ?
Result: 215 °C

Problem: What value of measured melting point is listed for `CSc1ccc(Oc2ccc([N+](=O)[O-])cc2[N+](=O)[O-])cc1` ?
Result: 119 to 120 °C

Problem: What value of measured melting point is listed for `Cc1nc2c(N)nc3ccccc3c2n1CCCCCCS(C)(=O)=O` ?
Result: 202 to 206 °C

The record that follows has no melting point shown yet.
Problem: What value of measured melting point is listed for `COc1cc(COc2nn(-c3ccccc3)cc2C=O)ccc1OCc1nc(-c2cccc(OS(C)(=O)=O)c2)oc1C` ?
Result: 146 to 148 °C
